# Tested on: E. coli ATCC 25922
# Type: cell-based, Escherichia coli
# Experimental Conditions: UTBLP in combination with chloramphenicol
Non-standard residues stand in square brackets, D forms with d. Residues, ends and D or L forms follow the SMILES beside them. *: point of attachment. Lys(Me3) = C[N+](C)(C)CCCC[C@H](N)C(=O)O; Lys(Me2) = CN(C)CCCC[C@H](N)C(=O)O; Lys(Me) = CNCCCC[C@H](N)C(=O)O; Octanoyl = CCCCCCCC(=O)*
Property Label: MICUTBLP [MICcombo] (µg/mL)
Please respond with the number in µg/mL and leave the unit unwritten.

Here's what some known entries look like.
1) CCCCCCCC(=O)N[C@@H](CCCCN)C(=O)NCCCN(CCCNC(=O)[C@H](CCCCN)NC(=O)CCCCCCC)CC(=O)N[C@@H](CCCCN)C(N)=O [UTBLP 1] ... 32
2) CCCCCCCC(=O)NCCCC[C@H](NC(=O)CCCCCCC)C(=O)N[C@@H](CCCCNC)C(=O)N[C@@H](CCCCNC)C(=O)N[C@@H](CCCCNC)C(=O)N[C@@H](CCCCNC)C(N)=O [UTBLP 6] (Octanoyl-K(Octanoyl)[Lys(Me)][Lys(Me)][Lys(Me)][Lys(Me)]-NH2) ... 8
3) CCCCCCCC(=O)N[C@@H](CCCCN(C)C)C(=O)NCCCN(CCCNC(=O)[C@H](CCCCN(C)C)NC(=O)CCCCCCC)CC(=O)N[C@@H](CCCCN(C)C)C(N)=O [UTBLP 3] ... 0.5
4) CCCCCCCC(=O)NCCCC[C@H](NC(=O)CCCCCCC)C(=O)N[C@@H](CCCC[N+](C)(C)C)C(=O)N[C@@H](CCCC[N+](C)(C)C)C(=O)N[C@@H](CCCC[N+](C)(C)C)C(=O)N[C@@H](CCCC[N+](C)(C)C)C(N)=O [UTBLP 8] (Octanoyl-K(Octanoyl)[Lys(Me3)][Lys(Me3)][Lys(Me3)][Lys(Me3)]-NH2) ... 8

Now examine the next entry.
Req: What does the data say about its MICUTBLP [MICcombo]? Entry: CCCCCCCC(=O)NCCCC[C@H](NC(=O)CCCCCCC)C(=O)N[C@@H](CCCCN(C)C)C(=O)N[C@@H](CCCCN(C)C)C(=O)N[C@@H](CCCCN(C)C)C(=O)N[C@@H](CCCCN(C)C)C(N)=O [UTBLP 7] (Octanoyl-K(Octanoyl)[Lys(Me2)][Lys(Me2)][Lys(Me2)][Lys(Me2)]-NH2)
Resp: 16
